# GBA EC50 Ratio (vs PYY(3-36)), [35S]GTPγS listing for each entry below
- Target of assay: human Y2 receptor (human) (UniProt P49146)
- Sequence (P49146 whole entry): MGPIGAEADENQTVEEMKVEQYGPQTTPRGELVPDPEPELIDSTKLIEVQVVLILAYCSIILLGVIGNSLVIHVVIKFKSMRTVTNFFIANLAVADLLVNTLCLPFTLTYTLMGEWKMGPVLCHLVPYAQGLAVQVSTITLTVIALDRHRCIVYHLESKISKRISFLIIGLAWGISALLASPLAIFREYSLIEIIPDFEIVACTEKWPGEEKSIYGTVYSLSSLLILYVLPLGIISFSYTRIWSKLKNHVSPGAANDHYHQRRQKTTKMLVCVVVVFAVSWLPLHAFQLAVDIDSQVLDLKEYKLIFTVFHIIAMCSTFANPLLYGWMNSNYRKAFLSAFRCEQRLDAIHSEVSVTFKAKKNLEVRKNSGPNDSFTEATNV
- Assay remarks: cell-based or functional assay
Non-standard residues stand in square brackets, D forms with d. *: point of attachment. 4Pal = N[C@@H](Cc1ccncc1)C(=O)O; Cha = N[C@@H](CC1CCCCC1)C(=O)O; dPip = O=C(O)[C@H]1CCCCN1; Isobutyryl = CC(C)C(=O)*; Nle = CCCC[C@H](N)C(=O)O; dAze = O=C(O)[C@H]1CCN1; Abu = CC[C@H](N)C(=O)O; Aib = CC(C)(N)C(=O)O
Readout name: GBA EC50 Ratio (vs PYY(3-36)), [35S]GTPγS

| Binder | Recorded measurement |
| --- | --- |
| Ac-S[dPip]RH[Cha][Cha]NL[Aib]TRQR[Cha]-NH2 (SMILES CC(=O)N[C@@H](CO)C(=O)N1CCCC[C@@H]1C(=O)N[C@@H](CCCNC(=N)N)C(=O)N[C@@H](Cc1c[nH]cn1)C(=O)N[C@@H](CC1CCCCC1)C(=O)N[C@@H](CC1CCCCC1)C(=O)N[C@@H](CC(N)=O)C(=O)N[C@@H](CC(C)C)C(=O)NC(C)(C)C(=O)N[C@H](C(=O)N[C@@H](CCCNC(=N)N)C(=O)N[C@@H](CCC(N)=O)C(=O)N[C@@H](CCCNC(=N)N)C(=O)N[C@@H](CC1CCCCC1)C(N)=O)[C@@H](C)O) [Ac-[D-Pic(2)24, Cha27,28,36, Aib31]-PYY(23-36)] | 5.8 |
| Ac-E[dP][Nle][4Pal][Cha][Cha]NK[Aib]TRQR[Cha]-NH2 (SMILES CCCC[C@H](NC(=O)[C@H]1CCCN1C(=O)[C@H](CCC(=O)O)NC(C)=O)C(=O)N[C@@H](Cc1ccncc1)C(=O)N[C@@H](CC1CCCCC1)C(=O)N[C@@H](CC1CCCCC1)C(=O)N[C@@H](CC(N)=O)C(=O)N[C@@H](CCCCN)C(=O)NC(C)(C)C(=O)N[C@H](C(=O)N[C@@H](CCCNC(=N)N)C(=O)N[C@@H](CCC(N)=O)C(=O)N[C@@H](CCCNC(=N)N)C(=O)N[C@@H](CC1CCCCC1)C(N)=O)[C@@H](C)O) [Ac-[Glu23, D-Pro24, Nle25, Pya(4)26, Cha27,28,36, Lys30, Aib31]-PYY(23-36)] | 1.3 |
| Ac-S[dAze]RH[Cha][Cha]NL[Aib]TRQR[Cha]-NH2 (SMILES CC(=O)N[C@@H](CO)C(=O)N1CC[C@@H]1C(=O)N[C@@H](CCCNC(=N)N)C(=O)N[C@@H](Cc1c[nH]cn1)C(=O)N[C@@H](CC1CCCCC1)C(=O)N[C@@H](CC1CCCCC1)C(=O)N[C@@H](CC(N)=O)C(=O)N[C@@H](CC(C)C)C(=O)NC(C)(C)C(=O)N[C@H](C(=O)N[C@@H](CCCNC(=N)N)C(=O)N[C@@H](CCC(N)=O)C(=O)N[C@@H](CCCNC(=N)N)C(=O)N[C@@H](CC1CCCCC1)C(N)=O)[C@@H](C)O) [Ac-[D-Aze(2)24, Cha27,28,36, Aib31]-PYY(23-36)] | 1.3 |
| Isobutyryl-R[Abu][Cha][4Pal]NL[Aib]TRQR[Cha]-NH2 (SMILES CC[C@H](NC(=O)[C@H](CCCNC(=N)N)NC(=O)C(C)C)C(=O)N[C@@H](CC1CCCCC1)C(=O)N[C@@H](Cc1ccncc1)C(=O)N[C@@H](CC(N)=O)C(=O)N[C@@H](CC(C)C)C(=O)NC(C)(C)C(=O)N[C@H](C(=O)N[C@@H](CCCNC(=N)N)C(=O)N[C@@H](CCC(N)=O)C(=O)N[C@@H](CCCNC(=N)N)C(=O)N[C@@H](CC1CCCCC1)C(N)=O)[C@@H](C)O) [Isobutanoyl-[Abu26, Cha27,36, Pya(4)28, Aib31]-PYY(25-36)] | 22 |
